- Read-out: E-selectin (Homo sapiens)
- TEST_NAME: BSK_LPS_Eselectin: BioMAP Diversity Plus: LPS Assay for Eselectin Biomarker Activity (AID 2283077)
- MEASUREMENT_CONDITIONS: primary human HUVEC with PBMC; actives raise or lower the signal
Active and inactive are the calls of the source. Rule for the calls: active = hit-call score of the fitted dose curve at least 0.9, where 1 is the maximum; inactive = score below 0.9.
Outcomes: 1.0 = active, 0.0 = inactive

CCOC(=O)C(O)(c1ccc(Cl)cc1)c1ccc(Cl)cc1 | 1.0
CN(C)CCO | 0.0
C=CC(=O)NCNC(=O)C=C | 0.0
CCCCCCCCCC[N+](C)(C)CCCCCCCCCC | 1.0
CC(C)C(=O)OCC(C)(C)C(OC(=O)C(C)C)C(C)C (configuration not stated) | 0.0
CCCCCCOC(=O)c1ccccc1C(=O)OCCCCCC | 0.0
O=C(O)C(F)(F)C(F)(F)C(F)(F)C(F)(F)C(F)(F)C(F)(F)C(F)(F)C(F)(F)F | 0.0
CC(C)(O)C(=O)Nc1ccc([N+](=O)[O-])c(C(F)(F)F)c1 | 0.0
Clc1ccc(C(Cl)(Cl)Cl)cc1 | 0.0
Sc1ccccc1 | 0.0
CCOP(=S)(OCC)SCSC(C)(C)C | 0.0
ClC1=C(Cl)[C@]2(Cl)[C@@H]3[C@H]4C[C@H]([C@@H]5O[C@H]45)[C@@H]3[C@@]1(Cl)C2(Cl)Cl | 0.0

###

- Read-out: Phosphatase and tensin (PTEN), PTEN (gene 5728)
- TEST_NAME: LTEA_HepaRG_PTEN: Life Technologies and Expression Analysis (LTEA) Assay for Phosphatase and tensin (PTEN) using HepaRG (AID 2283523)
- MEASUREMENT_CONDITIONS: mRNA level, 48 h; actives raise or lower the signal
Activity calls are given as the source filed them. Rule for the calls: active = hit-call score of the fitted dose curve at least 0.9, where 1 is the maximum; inactive = score below 0.9.
Classes used: True (active), False (inactive)

Nn1cnnc1 | False
O=S(=O)(O)C(F)(F)C(F)(F)C(F)(F)C(F)(F)C(F)(F)C(F)(F)F | True
CCCCCCCCCC[N+](C)(C)CCCCCCCCCC | True
Nc1ccc(-c2ccc(N)cc2)cc1 | False
O=C(O)C(F)(F)C(F)(F)C(F)(F)C(F)(F)C(F)(F)C(F)(F)C(F)(F)C(F)(F)C(F)(F)F | True
CCOC(=O)C(O)(c1ccc(Cl)cc1)c1ccc(Cl)cc1 | False
Cc1ccccc1O | False
O=S(=O)(O)C(F)(F)C(F)(F)C(F)(F)C(F)(F)F | False
O=C(N[C@H]1CN2CCC1CC2)c1cc2ccoc2cn1 | False
CCC(C)c1cc([N+](=O)[O-])cc([N+](=O)[O-])c1O (configuration not stated) | True
CCOP(=S)(OCC)SCSC(C)(C)C | False
CO/C=C(/C(=O)OC)c1ccccc1COc1cccc(C(F)(F)F)n1 | False

###

- Read-out: Protein phosphatase 2A (PPP2R4), PTPA (gene 5524)
- TEST_NAME: LTEA_HepaRG_PPP2R4: Life Technologies and Expression Analysis (LTEA) Assay for Protein phosphatase 2A (PPP2R4) using HepaRG (AID 2283522)
- MEASUREMENT_CONDITIONS: mRNA level, 48 h; actives raise or lower the signal
- Method: LTEA_HepaRG is a cell based, multiplexed-readout assay that uses HepaRG, a human liver cell line, with measurements taken at 48 hours after chemical dosing on a 96-well plate.LTEA_HepaRG_PPP2R4 is one of 102 assay component(s) measured in the LTEA HepaRG cell culture assay. It is a marker of Cell proliferation, survival, death.Data from the assay component LTEA_HepaRG_PPP2R4 was analyzed into 1 endpoint. […]
The source made the active and inactive calls. Rule for the calls: active = hit-call score of the fitted dose curve at least 0.9, where 1 is the maximum; inactive = score below 0.9.
Outcomes: true = active, false = inactive

Cc1cc(O)ccc1Cl | false
CCCCCCCCOC(=O)c1ccccc1C(=O)OCCCCCCCC | false
O=C(O)C(F)(F)C(F)(F)C(F)(F)C(F)(F)C(F)(F)C(F)(F)C(F)(F)C(F)(F)F | false
NS(=O)(=O)C(F)(F)C(F)(F)C(F)(F)C(F)(F)C(F)(F)C(F)(F)C(F)(F)C(F)(F)F | true
CC(C)(O)C(=O)Nc1ccc([N+](=O)[O-])c(C(F)(F)F)c1 | true
Clc1ccc(Cl)cc1 | false
CCSC(=O)N(CC)C1CCCCC1 | false
N#Cc1ccc(N(CC(N)=O)CC(F)(F)F)cc1C(F)(F)F | false
Cc1cc(-c2ccc(N)c(C)c2)ccc1N | false
CCCCCCCCCC[N+](C)(C)CCCCCCCCCC | false

###

- Read-out: sulfotransferase 2A1 (SULT2A1), SULT2A1 (gene 6822)
- TEST_NAME: LTEA_HepaRG_SULT2A1: Life Technologies and Expression Analysis (LTEA) Assay for sulfotransferase 2A1 (SULT2A1) using HepaRG (AID 2283531)
- MEASUREMENT_CONDITIONS: mRNA level, 48 h; actives raise or lower the signal
Calls of active or inactive are those of the source. How the source made its calls: active means hit-call score of the fitted dose curve at least 0.9, where 1 is the maximum; inactive means score below 0.9.
Possible outcomes: label 1 = active, label 0 = inactive

COS(=O)(=O)OC | label 0
Oc1ccc(Cl)cc1Cl | label 0
Oc1ccc(C(c2ccc(O)cc2)(C(F)(F)F)C(F)(F)F)cc1 | label 1
C1CC2OC2CC1C1CO1 (stereo not drawn) | label 0
CC(C)(c1ccccc1)c1ccc(O)cc1 | label 0
C=CC(=O)NCNC(=O)C=C | label 0
CCC(C)(c1ccc(O)cc1)c1ccc(O)cc1 | label 0
CCSC(=O)N(CC)C1CCCCC1 | label 0

###

- TEST_NAME: Tanguay_ZF_120hpf_TRUN_legacy: (Legacy) Oregon State University Tanguay Lab 120 Hour Post-fertilization zebrafish Assay for Truncated Body (AID 2283655)
Results filed as inconclusive are left out. Calls of active or inactive are those of the source. Rule for the calls: active = hit-call score of the fitted dose curve at least 0.9, where 1 is the maximum; inconclusive = response in the unintended direction; inactive = score below 0.9.
Classes used: active, inactive

Cc1cc(-c2ccc(N)c(C)c2)ccc1N | inactive
CCC(C)c1cc([N+](=O)[O-])cc([N+](=O)[O-])c1O (configuration not stated) | inactive
CCC(C)(CC)c1cc(NC(=O)c2c(OC)cccc2OC)on1 | inactive
CO/C=C(/C(=O)OC)c1ccccc1COc1cccc(C(F)(F)F)n1 | active
Cc1cc(O)ccc1Cl | inactive
CCCCCCOC(=O)c1ccccc1C(=O)OCCCCCC | inactive
COc1ccc(O)c(C(C)(C)C)c1 | inactive

###

- Read-out: Signal transducer and activator of transcription 3 (Homo sapiens) (UniProt P40763)
- Sequence (P40763 whole entry, looked up): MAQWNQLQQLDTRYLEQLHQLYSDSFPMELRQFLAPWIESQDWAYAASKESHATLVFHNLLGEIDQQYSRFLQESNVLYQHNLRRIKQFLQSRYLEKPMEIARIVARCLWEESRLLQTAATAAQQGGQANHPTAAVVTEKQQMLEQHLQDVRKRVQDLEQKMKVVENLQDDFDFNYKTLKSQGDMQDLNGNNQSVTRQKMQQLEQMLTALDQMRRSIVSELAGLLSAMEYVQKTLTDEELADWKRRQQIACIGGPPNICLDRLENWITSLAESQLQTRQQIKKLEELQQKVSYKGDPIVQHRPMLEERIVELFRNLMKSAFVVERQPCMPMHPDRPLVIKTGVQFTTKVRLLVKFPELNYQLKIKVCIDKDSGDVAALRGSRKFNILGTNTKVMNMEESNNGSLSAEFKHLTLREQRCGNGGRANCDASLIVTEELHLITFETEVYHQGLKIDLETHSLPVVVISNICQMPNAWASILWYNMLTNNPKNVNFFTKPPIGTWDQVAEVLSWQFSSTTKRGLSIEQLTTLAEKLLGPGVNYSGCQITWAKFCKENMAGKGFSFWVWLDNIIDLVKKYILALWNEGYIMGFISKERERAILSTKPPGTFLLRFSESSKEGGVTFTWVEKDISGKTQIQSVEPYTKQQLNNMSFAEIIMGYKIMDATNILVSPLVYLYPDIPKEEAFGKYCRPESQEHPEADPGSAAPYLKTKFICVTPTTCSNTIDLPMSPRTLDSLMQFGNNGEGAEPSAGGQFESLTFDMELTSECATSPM
- TEST_NAME: LTEA_HepaRG_STAT3: Life Technologies and Expression Analysis (LTEA) Assay for Signal transducer and activator of transcription (STAT3) using HepaRG (AID 2283529)
- MEASUREMENT_CONDITIONS: mRNA level, 48 h; actives raise or lower the signal
The source made the active and inactive calls. How the source made its calls: active means hit-call score of the fitted dose curve at least 0.9, where 1 is the maximum; inactive means score below 0.9.
Outcome codes: T (active), F (inactive)

O=C(NC(=O)c1cc(F)c(F)cc1Cl)Nc1cc(F)ccc1N1CCC(C(=O)O)CC1 | F
COc1ccc(O)c(C(C)(C)C)c1 | F
CC(C)C(=O)OCC(C)(C)C(OC(=O)C(C)C)C(C)C (stereo not drawn) | F
Cc1cc(-c2ccc(N)c(C)c2)ccc1N | F
CC#Cc1cc(C)nc(Nc2ccccc2)n1 | T
Nc1ccc(-c2ccc(N)cc2)cc1 | F
O=C(N[C@H]1CN2CCC1CC2)c1cc2ccoc2cn1 | F
ClC1=C(Cl)[C@]2(Cl)[C@@H]3[C@@H](Cl)[C@H]4O[C@H]4[C@@H]3C1(Cl)C2(Cl)Cl | F
Clc1ccc(C(Cl)(Cl)Cl)cc1 | F
Clc1ccc(Cl)cc1 | F
ClC(Cl)=C(c1ccc(Cl)cc1)c1ccc(Cl)cc1 | F
CCCCCCCCOC(=O)c1ccccc1C(=O)OCCCCCCCC | F
Cc1cccc(C)c1N | F

###

- Read-out: Insulin-like growth factor-binding protein 1 (IGFBP1), IGFBP1 (gene 3484)
- TEST_NAME: LTEA_HepaRG_IGFBP1: Life Technologies and Expression Analysis (LTEA) Assay for Insulin-like growth factor-binding protein 1 (IGFBP1) using HepaRG (AID 2283508)
- MEASUREMENT_CONDITIONS: mRNA level, 48 h; actives raise or lower the signal
Calls of active or inactive are those of the source. The calls were made as follows: active = hit-call score of the fitted dose curve at least 0.9, where 1 is the maximum; inactive = score below 0.9.
Outcomes: 1 (yes) for active, 0 (no) for inactive

CCCCCCCCCC[N+](C)(C)CCCCCCCCCC | 1 (yes)
Oc1ccc(Cl)cc1Cl | 0 (no)
Nc1ccc(-c2ccc(N)cc2)cc1 | 0 (no)
CN(C)CCO | 0 (no)
Clc1ccc(Cl)cc1 | 0 (no)
ClC1=C(Cl)[C@]2(Cl)[C@@H]3[C@@H]4C[C@@H]([C@H]5O[C@@H]45)[C@@H]3[C@@]1(Cl)C2(Cl)Cl | 0 (no)
ClC1=C(Cl)[C@]2(Cl)[C@@H]3[C@@H](Cl)[C@H]4O[C@H]4[C@@H]3C1(Cl)C2(Cl)Cl | 0 (no)
C=CC(N)=O | 0 (no)
CO/C=C(/C(=O)OC)c1ccccc1COc1cccc(C(F)(F)F)n1 | 1 (yes)
O=NN(c1ccccc1)c1ccccc1 | 0 (no)
C[C@]12CCC(=O)C=C1CC[C@@H]1[C@@H]2CC[C@@]2(C)[C@H]1CC[C@]2(C)O | 0 (no)
Cc1ccc(O)c(C)c1 | 0 (no)
Cc1ccccc1O | 0 (no)
